Give measured composite z-score for each item. Keep answers brief.
Biological target: Fibroblast growth factor 10 (Homo sapiens)
Assay: FGF10 binders on small-molecule microarrays, primary screen, biochemical, small-molecule microarray, 635 nm fluorescence (AID 1102)
Settings: FGF10 binding, fluorescence 635 nm, higher = more signal
One number for each entry.

Study these solved cases before continuing.
| compound | target_system | quantitative_readout |
| --- | --- | --- |
| [N-]=[N+]=Nc1ccccc1[C@@H]1OC(c2ccc(OCCCO)cc2)=N[C@]1(Cc1ccccc1)C(=O)N1CCOCC1 | Fibroblast growth factor 10 (Homo sapiens) | 1.39 |
| CC(C)N1C(=O)C[C@@](C(=O)NCC(F)(F)F)(c2ccc([N+](=O)[O-])cc2)[C@H]1c1ccc(CO)cc1 | Fibroblast growth factor 10 (Homo sapiens) | -0.244 |
| COc1cc(Br)cc(C(O)C2C=CC3C(=O)N(C)C(=O)C3N2N2CCCCC2)c1OC (centres undefined) | Fibroblast growth factor 10 (Homo sapiens) | -0.582 |

Now take the following compound into account.
input: Request: composite z-score, test system Fibroblast growth factor 10 (Homo sapiens), entry CCOC(=O)C[C@H]1[C@H](OC(=O)c2cc3ccccc3oc2=O)[C@@H](NC(=O)c2ccccc2)c2cc(OCCCO)ccc2N1C(=O)c1ccc2ccccc2n1
output: 0.72

====

Kindly state z-score for each of the entries shown.
Molecular target: NADPH oxidase 2 (Homo sapiens)
Experiment: NOX2-dependent H2O2 signal modulators, primary screen, NOX inhibitor project, cell-based, HEK293-NOX2, PMA-stimulated, Amplex Red fluorescence (AID 1159); also: test concentration not given here
Settings: 45 min, higher = more signal, called active from +8 up or from −8 down
One number for each entry.

// below: answered molecules
| molecule | z-score |
| --- | --- |
| COc1ccc(-c2cc3c(c(-c4ccc(Oc5ccccc5)cc4)n2)[Si](C(C)C)(C(C)C)OC3)cn1 | 0.476 |
| CCCC[C@@H]1C[C@H]1[C@@H](NC(=O)c1ccco1)c1ccc(-c2ccccc2)cc1 | -4.04 |
| O=C1O[C@@H](c2ccccc2)[C@@H](c2ccccc2)N2[C@@H](c3ccccc3OCCO)[C@]3(C(=O)Nc4ccc(C#CC5=CCCCC5)cc43)[C@@H](C(=O)N3CCCCCCC3)[C@H]12 | 0.624 |

input: Look up z-score: O=C1OCCC/C=C\[C@H]2OC34C=CCN(Cc5ccccc5)C(=O)[C@H]3N(CCCO)C(=O)[C@@H]4C12 (some centres undefined)
output: 1.76

====

Target: Neurogenic locus notch homolog protein 3 (Homo sapiens)
Experiment: NOTCH3 binders on small-molecule microarray, primary screen, biochemical, 635/667 nm fluorescence (AID 1096)
Conditions: NOTCH3 binding, 635 nm fluorescence, higher = more signal
Use 0.5 as the dividing line for composite z-score, with the line itself on the Satisfied side and lower values as Not satisfied.

| molecule | class_assignment |
| --- | --- |
| COC(=O)[C@@]1(Cc2ccc(OC)cc2)[C@@H]2C(=CC(=O)[C@H]2CC(=O)C(=O)N2CCCC2)CN1C(=O)c1ccccc1 | Satisfied |
| O=C1C[C@@](C(=O)NC2CC2)(c2ccc([N+](=O)[O-])cc2)[C@@H](c2ccc(CO)cc2I)N1C1CCCCC1 | Satisfied |
| C#C[C@H](O[Si](C#Cc1ccc(Oc2ccccc2)cc1)(C(C)C)C(C)C)c1ccccc1 | Not satisfied |
| COCCCNC(=O)[C@@]1(C)c2ccccc2C(=O)N(C(C)C)[C@H]1c1ccc(CO)cc1 | Not satisfied |
| CCOC(=O)C[C@H]1[C@H](OC(=O)c2ccc(C(=O)c3ccccc3)cc2)[C@@H](NC(=O)c2ccc3ccccc3n2)c2cc(OCCCO)ccc2N1C(=O)c1ccccc1 | Satisfied |
| C[N+](C)(C)CCCCCCNC(=O)[C@@H]1C[C@@H]2C(=O)N[C@@H](Cc3ccccc3)C(=O)N2[C@@H]1c1cccc(OCCO)c1 | Satisfied |

Consider the record given below.
input: Confirm if composite z-score reported for the molecule C=CCC(OC(C)=O)[C@@H]1[C@@H](N(Cc2cc3ccccc3o2)C(=O)c2cccc3ccccc23)c2cc(OCCCO)ccc2N1C(=O)c1ccc(-c2ccccc2)cc1 (some centres not stated) is 0.5 or above.
output: Not satisfied

====

For each record, write down the corresponding composite z-score.
Assay: small-molecule binders of probe aNOTCH3, primary screen, biochemical, small-molecule microarray, 635/667 nm fluorescence (AID 1120);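 also: probe is a biotin-tagged antibody raised against NOTCH3 rather than NOTCH3 protein; score merges spot fluorescence near 667 nm with spot signal to noise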
Conditions: higher = more signal

| compound | result |
| --- | --- |
| O=C(c1ccccc1)N1C(=O)[C@]2(COC(c3ccc(OCCCO)cc3)=N2)Cc2ccccc21 | 0.201 |
| O=C1[C@@]23C=C(Br)[C@H](C[C@@H]2CCOC3)[C@@]12CO2 | 0.146 |
| COCCOC(=O)N1C(=O)[C@@]2(c3cc(C#Cc4ccc(OC)cc4)ccc31)[C@H](c1ccccc1OCCO)N1[C@H](c3ccccc3)[C@H](c3ccccc3)OC(=O)[C@H]1[C@@H]2C(=O)NC[C@H](O)c1ccccc1 | 0.156 |
| O=C1C[C@@](C(=O)NCCN2CCOCC2)(c2ccc([N+](=O)[O-])cc2)[C@@H](c2ccc(CO)cc2)N1CC12CC3CC(CC(C3)C1)C2 | 0.0208 |
| CCCc1cc2c(n1Cc1cc(F)cc(F)c1)C(C)C1CN(C(=O)c3ccccc3)C(C)(C(=O)OC)C21 (stereo not given) | 0.272 |
| CC(C)OC(=O)C=C1C[C@@H](c2ccccn2)O[C@@H](c2ccccn2)O1 | 0.0942 |
| O=C1C2C=CC(C(O)Cc3ccccc3)N(n3cnnc3)C2C(=O)N1Cc1ccccc1 (stereo not given) | 0.206 |
| CCN(CC)c1ccc(N2CC=CC34O[C@@H]5C=CCCOC(=O)C5[C@H]3C(=O)N(CCCCCCO)[C@@H]4C2=O)cc1 (stereo not given in full) | -0.276 |

Can you give me composite z-score for all of these, one by one?
1. CC1(C)C2C=C(C(O)C3C=CC4C(=O)NC(=O)C4N3Nc3ccc(Cl)cc3Cl)C[C@@H]1C2 (stereo not given in full)
2. O=C1O[C@@H](c2ccccc2)[C@@H](c2ccccc2)N2[C@@H](c3ccccc3OCCO)[C@]3(C(=O)Nc4ccccc43)[C@@H](C(=O)Nc3nc4ccccc4s3)[C@H]12
3. C=CCOC(=O)[C@H]1[C@@H]2C(=O)O[C@@H](c3ccccc3)[C@@H](c3ccccc3)N2[C@@H](c2ccc(OCCOC(=O)[C@H]3C[C@H]4C(=O)N[C@@H](CCCCN(C)C)C(=O)N4[C@H]3c3ccc(O)cc3)cc2)[C@]12C(=O)Nc1ccc(I)cc12
4. CCCCCN1CC=CC23O[C@@H]4/C=C\CCC(C)OC(=O)C4[C@H]2C(=O)N(C(C)CO)[C@@H]3C1=O (stereo not given in full)

output:
0.323
1.38
0.282
-0.127

Provide composite z-score for all items below, preserving their order.
1. CCCC#C[Si](O[C@H](CC)c1cn(Cc2cccc(Cl)c2)nn1)(C(C)C)C(C)C
2. CCCC[C@@H]1C[C@H]1[C@@H](NC(=O)c1ccco1)c1ccc(-c2ccccc2)cc1
3. Cc1nc2cc(Br)ccc2c(=O)o1

output:
1. 0.0715
2. 0.0155
3. -0.013

====

Biological target: Follistatin-related protein 3 (Homo sapiens)
Assay: FSTL3 binders on small-molecule microarrays, primary screen, biochemical, small-molecule microarray, 635 nm fluorescence (AID 1105);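 also: score merges emission near 667 nm and signal to noise per printed spot across three slides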
Conditions: FSTL3 binding, higher = more signal
outcome_measure: composite z-score
Numbers only.

// worked examples, composite z-score included
| compound | target_system | composite z-score |
| --- | --- | --- |
| C[C@H]1NC(=O)[C@@]23C(=O)N[C@@H](Cc4ccccc4)C2[C@H](C)[C@@]2(C)O[C@H]2C3/C=C/C/C=C\CNC(=O)[C@@H]2CCCN2C1=O (some centres not stated) | Follistatin-related protein 3 (Homo sapiens) | 0.891 |
| CN1C(=O)C2C=CC(C(O)c3ccccc3)N(N(c3ccccc3)c3ccccc3)C2C1=O (configuration not stated) | Follistatin-related protein 3 (Homo sapiens) | 0.455 |
| CCCCCN1CC=CC23O[C@@H]4C=CCCOC(=O)C4[C@H]2C(=O)N(CCCCCO)[C@@H]3C1=O (some centres not stated) | Follistatin-related protein 3 (Homo sapiens) | -1.15 |
| O=C(NC1CC1)[C@@H]1c2ccccc2C(=O)N(Cc2ccccc2Cl)[C@H]1c1ccc(CO)cc1 | Follistatin-related protein 3 (Homo sapiens) | 0.654 |
| C=CCC(OC(C)=O)[C@@H]1[C@@H](N(Cc2ccc(-c3ccccc3)cc2)C(=O)c2ccc(-c3ccccc3)cc2)c2cc(OCCCO)ccc2N1C(=O)Cc1ccc2ccccc2c1 (some centres not stated) | Follistatin-related protein 3 (Homo sapiens) | 0.394 |

For each listed entry, give its composite z-score.
1. COC(=O)[C@@]1(Cc2ccc(OC)cc2)[C@H]2c3cc(C(=O)N(C)C)n(C)c3C[C@H]2CN1C(=O)c1ccccc1
2. CCCCCN1CC=CC23O[C@@H]4/C=C\CCC(C)OC(=O)C4[C@H]2C(=O)N(C(C)CO)[C@@H]3C1=O (some centres not stated)

output:
1. 1.33
2. -0.0103
